The values you see were collected from PubChem BioAssay.

# ASSAY OVERVIEW: thallium flux modulation in parental HEK cells, confirmation, counter-screen for KCC2 modulator project, cell-based, counterscreen 1 (AID 1716)
# RECORDED CONDITIONS: HEK293 parental cells, thallium flux FluoZin2, ouabain; at 10 µM; baseline-ratio fluorescence slope, 10–20 s after thallium
The list shows a part of the results. Results filed as inconclusive are left out. Calls of active or inactive are those of the source.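 Rule for the calls: active = thallium flux rate significantly above the same plate's solvent-only control wells, beyond their mean plus 3 SD; inconclusive = the two replicate wells gave conflicting results; inactive = the rest.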
For each record, write down the corresponding thallium flux rate (normalised fluorescence).

Example entries and their recorded answers appear below.
COc1ccc([N+](=O)[O-])cc1NC(=O)COC(=O)/C=C/c1ccco1; 0.0079 (inactive)
O=C(COC(=O)c1cc([N+](=O)[O-])ccc1NCc1ccccc1)NC1CCCCC1; 0.00762 (inactive)
O=C(c1cc(-c2ccc(O)cc2)on1)N1CCCc2ccccc21; 0.00346 (inactive)
O=C(Nc1nnc(-c2ccccc2)o1)c1cc(-c2cccs2)nc2ccccc12; 0.0864 (active)
O=C(NNC(=S)NC(=O)c1cn(-c2ccccc2)nc1-c1ccccc1)c1ccncc1; 0.0141 (active)
O=C(CNC(=O)c1ccco1)OCC(=O)c1ccccc1; 0.00754 (inactive)
CCn1c(SCc2ccccc2)nc2c(c1=O)SCC2; 0.00537 (active)
C=CCn1c(=S)[nH]c2scc(-c3ccco3)c2c1=O; 0.0914 (active)

Please supply thallium flux rate (normalised fluorescence) for each of the following items, keeping them in order.
1. CCOc1ccccc1C1CC(c2ccc(Cl)cc2)Nc2nc(N)nn21 (stereo unspecified)
2. COc1ccc(CNC(=O)CCn2cccc2)cc1

1. 0.00745 (inactive)
2. 0.00777 (inactive)

Give the measured thallium flux rate (normalised fluorescence) of O=C(O)CCN(Cc1ccccc1)S(=O)(=O)c1c(Cl)cccc1Cl .
0.00714 (inactive)
